Cited source: PubChem BioAssay (NCI)

Assignment: determine reported growth for the given compounds.
# System: MOLT-4 leukemia
# Protocol: NCI-60 one-dose screen, 48 h (100 = growth as untreated, 0 = no growth, -100 = all killed)
# Run conditions: 10 µM unless noted
This is part of a sample that, as a whole, favours compounds with a hit. Of some 83,000 tested, about 20% had one in any assay.
Quick reminder: number only, in %, skip the unit.

Query block: // map COc1ccc(OC)c(-c2c(C#N)c(-c3cccs3)nc3c2c(-c2ccccc2)nn3-c2ccccc2)c1 to recorded growth (system: MOLT-4 leukemia)
Result block: 99.4

Query block: // map C[C@@H]1CCC[C@H]1CC(N)C(=O)O (some centres undefined) to recorded growth (system: MOLT-4 leukemia)
Result block: 114

Query block: // map CCn1cc(C(=O)N/N=C/c2cccs2)c(=O)c2cc(F)c(N3CCNC(C)C3)c(F)c21 (centres undefined) to recorded growth (system: MOLT-4 leukemia)
Result block: 75.1

Query block: // map Cc1ccc(-c2cc(-c3ccc(Cl)cc3)nc(NC(=O)c3cccnc3)n2)cc1 to recorded growth (system: MOLT-4 leukemia)
Result block: 93.2

Query block: // map Cn1c(O)c(C=NCCN=Cc2c(O)n(C)c(=O)n(C)c2=O)c(=O)n(C)c1=O to recorded growth (system: MOLT-4 leukemia)
Result block: -46.6

Query block: // map C=CCn1c(SCC(=O)Nc2ccc(C(=O)/C=C/c3ccc(Cl)cc3)cc2)nnc1-c1cc(-c2ccc(S(N)(=O)=O)cc2)nc2ccccc12 to recorded growth (system: MOLT-4 leukemia)
Result block: 66.1

Query block: // map COc1ccccc1Nc1nc2c(s1)C1=CC[C@H]3[C@@H]4CC[C@H]([C@H](C)CCCC(C)C)[C@@]4(C)CC[C@@H]3[C@@]1(C)CC2 to recorded growth (system: MOLT-4 leukemia)
Result block: 104

Query block: // map O=S(=O)(NCCNc1nccc(-c2c(-c3cccc(F)c3)nc3occn23)n1)c1ccc(Br)cc1 to recorded growth (system: MOLT-4 leukemia)
Result block: 82.5

Query block: // map COc1ccccc1NC(=O)Cn1cc(CN2CCN(c3ccnc4cc(Cl)ccc34)CC2)nn1 to recorded growth (system: MOLT-4 leukemia)
Result block: 70.8
